testMethodNotes: Inhibition of his6-tagged L1 (unknown origin) expressed in Escherichia coli BL21-DE3 incubated for 16 hrs
Parameters: species or system Enzyme inhibition
protocolConditions: read-out: IC50
// IC50 lookup, one value per entry
Hi! Could you send only the number? It should be in µM, unit omitted.

Reference set (3 entries):
INSERT INTO measurements (compound, endpointresult) VALUES
  ('NCCOC(=O)[C@@H]1CS[C@H]2CS[C@H](CS)N21', 58),
  ('Nc1nc(COC(=O)[C@@H]2CS[C@H]3CS[C@H](CS)N32)cs1', 30),
  ('SC[C@H]1SC[C@@H]2Nc3ccccc3N21 (relative stereo)', 0.62);

# context switch: different compound, same IC50
input: Identify IC50 associated with the compound `O=C(O)[C@@H]1CS[C@H]2CS[C@H](CCS)N21`
output: 12
